# Test system: HL-60(TB) leukemia
# ASSAY REMARKS: NCI tumour cell line growth inhibition, 48 h
Quick reference: TGI of the listed items.

Recorded TGI, per entry:
MOLECULE	TGI
Fc1cc(C2=Nn3c(nnc3-c3cc(F)c(Cl)cc3Cl)SC2)c(Cl)cc1Cl	> 100 µM
N#CCC(=O)N/N=C(/C(=O)Nc1ccccc1)C1C(=O)N(c2ccccc2)N=C1N (stereo not given)	> 100 µM
COC(=O)Nc1nc2ccc(C(=O)C3CC3)cc2[nH]1	> 100 µM
COc1ccc(-c2cc(=O)c3cc4c(cc3[nH]2)OCO4)c(OC)c1	46.3 µM

Query: Look up and report measured TGI for this entry: `N#Cc1nc(N)c(C#N)[nH]1`
Result: > 100 µM

====

# System: UACC-257 melanoma
# ASSAY REMARKS: NCI tumour cell line growth inhibition, 48 h
Quick reference: TGI of the listed items.

Recorded TGI, per entry:
MOLECULE	TGI
O=C(O)c1cc(C(=O)C(=O)c2cc(C(=O)O)c(O)c3ccccc23)c2ccccc2c1O	> 100 µM
COc1cc(/C=C2\N=C(c3ccccc3)N(c3ccc4c(c3)Sc3cc(N5C(=O)/C(=C/c6cc(OC)c(OC)c(OC)c6)N=C5c5ccccc5)ccc3N4)C2=O)cc(OC)c1OC	31.3 µM
O=C1CNC(=O)N1	> 1120 µM
O=C(NCCNc1nccc(-c2c(-c3ccc(F)cc3)nc3sccn23)n1)Nc1cccc(C(F)(F)F)c1	26.1 µM
Cc1cc(C)c2c(=O)cc(-c3ccc(F)cc3)[nH]c2n1	> 100 µM

# evaluate next
Query: Supply TGI measured with UACC-257 melanoma for CC12CCC3C(CCC4(O)C=CCCC34C=O)C1(O)CC(O)C2c1ccc(=O)oc1 (stereo unspecified) .
Result: 0.478 µM

====

# Tested on: OVCAR-5 ovarian
# ASSAY REMARKS: NCI tumour cell line growth inhibition, 48 h
Quick reference: TGI of the listed items.

COMPOUND	ENDPOINT VALUE
CC(C)(Cl)C(Br)CCC(=CCBr)CBr (mixture of isomers)	26.4 µM
N#CCC(=O)N/N=C(/C(=O)Nc1ccccc1)C1C(=O)N(c2ccccc2)N=C1N (stereo not given)	> 100 µM
CCN1C2=C(SC(=S)C1=C1SC(C(=O)c3ccccc3)=C(C(=O)c3ccccc3)S1)SC(=Nc1ccccc1)C2=O	> 100 µM
O=P1(O)c2ccccc2CSCc2ccccc21	> 100 µM
CCOC(=O)c1sc2c(c1OC(=O)c1ccc(Cl)cc1Cl)c(=O)n(-c1ccccc1)c(=S)n2-c1ccccc1	> 100 µM

Query: Look up and report measured TGI for this entry: `COc1ccc(/C=C2\C(=O)Nc3ccccc32)cc1OC`
Result: > 100 µM

Query: Look up and report measured TGI for this entry: `Cc1cc2c(cc1C)[n+](=O)c(C(=O)CC(=O)C(=O)Nc1ccccc1C)c(C)n2[O-]`
Result: > 100 µM

Query: Look up and report measured TGI for this entry: `CC1(C)OC[C@@H]([C@H](C=O)OCc2ccccc2)O1`
Result: > 100 µM

Query: Look up and report measured TGI for this entry: `COC(=O)CC12CC(NC(=O)c3csc([C@@H](C[C@H](C(C)C)N(C)C(=O)[C@@H](NC(=O)[C@H]4CCCCN4C)C(C)C)OC(C)=O)n3)(C1)C2`
Result: > 33.3 µM

Query: Look up and report measured TGI for this entry: CC(C)c1ccc2c(c1)CCC1C(C)(CN)CCCC21C (stereo not given)
Result: 3.33 µM

Query: Look up and report measured TGI for this entry: CC1NC(=O)c2c(-c3ccccc3)nn(-c3ccccc3)c2NC1=O (stereo not given)
Result: > 100 µM

Query: Look up and report measured TGI for this entry: CCCCCCCCOP(=O)(O)OP(=O)(O)OCC1OC(n2ccc(N)nc2=O)C(O)C1O (stereo not given)
Result: > 100 µM

Query: Look up and report measured TGI for this entry: `NNC(=S)N/N=C/c1ccccn1`
Result: > 100 µM

Query: Look up and report measured TGI for this entry: COc1ccc(-c2c(C(C)=O)c(C)n(C3OC(COC(C)=O)C(OC(C)=O)C(OC(C)=O)C3OC(C)=O)c(=S)c2C#N)cc1 (stereo not given)
Result: > 100 µM

====

# System: SK-MEL-2 melanoma
# ASSAY REMARKS: NCI tumour cell line growth inhibition, 48 h; in the data active means GI50 below about 0.43 µM; inactive means the rest
I would appreciate it if you answered using one of these outcomes: active, inactive

Reference set (5 entries):
CHEM SMILES	LABEL CLASS
O=C(NCCCNc1cc(-c2cn(-c3ccccc3)nc2-c2cccc(O)c2)ccn1)c1ccc(F)cc1	inactive
COc1ccc(-c2nc(Nc3ccc(F)cc3)nc(Nc3ccc4c(c3)nc(C)n4Cc3ccccc3)n2)cc1	inactive
O=C(O)c1ccc(NCn2nc(-c3ccccc3O)oc2=S)cc1O	inactive
CC(C)[C@]12O[C@H]1[C@@H]1O[C@]13[C@]1(O[C@H]1C[C@H]1C4=C(CC[C@@]13C)C(=O)OC4)[C@@H]2OC(=O)OC(C)(C)C	active
CSc1nc(SC)c2cnn(-c3ccnc4cc(Cl)ccc34)c2n1	inactive

Query: What classification did `CCOC(=O)c1c2c(n(Cc3ccccc3)c1C)-c1nc[nH]c1C(=O)C2=O` end up with in this test?
Result: inactive

====

# System: RPMI-8226 leukemia
# ASSAY REMARKS: NCI tumour cell line growth inhibition, 48 h
Quick reference: TGI of the listed items.

COMPOUND	TGI
CC(=O)c1cc2sc3ccccc3c2[nH]1	> 100 µM
Cc1c(/C=N/NC(=S)Nc2ccc([N+](=O)[O-])cc2)c(=O)n(-c2ccccc2)n1C	> 100 µM

# evaluate next
Query: Look up and report measured TGI for this entry: CC1(C)OP(=O)(c2ccccc2)C=C1Br (stereo not drawn)
Result: > 100 µM

====

# System: RXF 393 renal
# ASSAY REMARKS: NCI tumour cell line growth inhibition, 48 h
Quick reference: TGI of the listed items.

Query: Look up and report measured TGI for this entry: O=C1NC(=S)NC1C(Cc1ccccc1)c1ccco1 (stereo not drawn)
Result: > 100 µM

Query: Look up and report measured TGI for this entry: `O=[N+]([O-])c1cccc(C=NC23CC4CC(CC(C4)C2)C3)c1`
Result: > 100 µM

====

# Tested on: SF-268 CNS
# ASSAY REMARKS: NCI tumour cell line growth inhibition, 48 h
Where a SMILES comes first, the peptide text is derived from it. The star is where a group is joined. Boc = CC(C)(C)OC(=O)*
READOUT: TGI

MOLECULE	ENDPOINT VALUE
Nc1c2ccccc2nc2nccnc12	> 100 µM

Query: Supply TGI measured with SF-268 CNS for Cc1ccc(OC2CC(n3cnc4c(=O)[nH]c(Br)nc43)OC2Oc2ccc(C)cc2)cc1 (stereo unspecified) .
Result: 58.1 µM

Query: Supply TGI measured with SF-268 CNS for `COc1cc(/C=C(\C)c2ccc3c(c2)OCO3)cc(OC)c1OC` .
Result: > 100 µM

Query: Supply TGI measured with SF-268 CNS for `CCN(CC)CCOc1ccc(N2Cc3cc(OC)c(OC)cc3C2=O)cc1` .
Result: > 100 µM

Query: Supply TGI measured with SF-268 CNS for CC(=O)OC12c3ccccc3C(c3ccccc31)C1C(=O)N(c3ccccc3O)C(=O)C12 (stereo unspecified) .
Result: > 100 µM

Query: Supply TGI measured with SF-268 CNS for CNC(=O)CNC(=O)C(NC(=O)CNC(=O)C1CCCN1C(=O)C(C)NC(=O)C(NC(=O)OC(C)(C)C)C(C)C)C(C)C (stereo unspecified) (Boc-VAPGVG-NHMe; configuration not given here) .
Result: > 100 µM

====

Quick reference: log10 TGI of the listed items.
# System: CAKI-1 renal
# ASSAY REMARKS: NCI tumour cell line growth inhibition, 48 h
Scale: decimal log of TGI, TGI in µM.

Recorded log10 TGI, per entry:
CHEM SMILES	log10 TGI
CCOC(=O)c1c2c(n(Cc3ccccc3)c1C)-c1nc[nH]c1C(=O)C2=O	1.59
c1ccc2c(CNCCCN3CCN(CCCNCc4cccc5ccccc45)CC3)cccc2c1	0.60
C/C(CC(O)(C(F)(F)Cl)C(F)(F)Cl)=N\Nc1ccccc1	1.83
O=C1NC(=N[C@@H]2C[C@H]2c2ccccc2)S/C1=C\c1ccc2ncccc2c1	0.81
COc1cc2cc(Oc3ccc(NC(=O)Nc4ccc(F)c(C(F)(F)F)c4)cc3)c(C)nc2cc1OCCN1CCOCC1	0.98

Query: Look up and report measured log10 TGI for this entry: `CCOC(=O)c1ccc(N(C)Cc2cnc3nc(N)nc(N)c3n2)cc1`
Result: 1.65

Query: Look up and report measured log10 TGI for this entry: `C=CC[C@H](O)[C@@](NC(=O)OCc1ccccc1)(Sc1ccc(C)cc1)C(F)(F)F`
Result: 1.94

Query: Look up and report measured log10 TGI for this entry: `CN1CCN(C(=O)OCc2nc3c(N4CCOCC4)nc(-c4ccccc4)nc3n2C)CC1`
Result: 0.26

Query: Look up and report measured log10 TGI for this entry: `CN1CCN(Cn2nc(-c3ccccc3)n(/N=C/c3ccc(-c4ccc(Cl)cc4Cl)o3)c2=S)CC1`
Result: 1.34
